Origin of the recorded values: ChEMBL document CHEMBL4371069

# assayed_target: CYP2C8 (Homo sapiens, UniProt P10632)
# Sequence (P10632 whole entry): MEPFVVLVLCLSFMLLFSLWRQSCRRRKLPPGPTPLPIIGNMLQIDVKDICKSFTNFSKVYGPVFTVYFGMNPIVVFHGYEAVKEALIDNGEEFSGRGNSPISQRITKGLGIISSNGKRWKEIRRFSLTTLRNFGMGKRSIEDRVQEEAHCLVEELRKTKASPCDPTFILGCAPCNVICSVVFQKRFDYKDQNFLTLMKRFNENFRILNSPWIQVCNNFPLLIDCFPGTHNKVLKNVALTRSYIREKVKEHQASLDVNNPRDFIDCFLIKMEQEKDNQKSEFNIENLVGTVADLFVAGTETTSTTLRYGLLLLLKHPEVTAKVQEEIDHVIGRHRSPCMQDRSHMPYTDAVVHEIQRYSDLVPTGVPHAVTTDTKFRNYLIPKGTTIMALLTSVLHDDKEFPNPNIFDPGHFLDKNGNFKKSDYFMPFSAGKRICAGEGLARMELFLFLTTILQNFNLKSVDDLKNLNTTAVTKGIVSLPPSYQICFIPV
# test: Inhibition of CYP2C8 in human liver microsomes assessed as residual activity at 10 uM using amiodiaquine as substrate preincubated for 5 mins followed by NADPH addition and measured after 15 mins by LC-MS/MS analysis relative to control
# Format: ADME
# assay_conditions: probe amiodiaquine, read-out: Activity
Kindly supply the reported activity at 0.25 h, 10 µM values for the records listed here.

Answered examples (3):
C=CC(=O)Nc1cc2c(Nc3ccc(F)c(Cl)c3)ncnc2cc1OCc1cn(Cc2cccc(F)c2)nn1	35.6%
C=CC(=O)Nc1cc2c(Nc3ccc(F)c(Cl)c3)ncnc2cc1OCc1cn(Cc2ccc(F)cc2)nn1	36.4%
C=CC(=O)Nc1cc2c(Nc3ccc(F)c(Cl)c3)ncnc2cc1OCc1cn(Cc2ccc(Cl)cc2)nn1	48.7%

Please examine the following record next.
Consider the molecule CC(=O)N1CCN(c2ccc(OCC3COC(Cn4ccnc4)(c4ccc(Cl)cc4Cl)O3)cc2)CC1 (centres undefined) and give its measured activity at 0.25 h, 10 µM.
95.6%

###

# Tested on: SK-BR-3
# test: Antiproliferative activity against HER2-dependant human SKBR3 cells after 72 hrs by EZ-Cytox assay
# Type: ADME, cell-based
# assay_conditions: SK-BR-3, 72 h
readout_name: log10(IC50) (log10 of the value in nM)
Heads up, the numbers here are log10 of IC50 in nM units.

Batch lookup, log10(IC50) per entry.
1. C=CC(=O)Nc1cc2c(Nc3ccc(F)c(Cl)c3)ncnc2cc1OCc1cn(Cc2cccc(F)c2)nn1
2. C=CC(=O)Nc1cc2c(Nc3ccc(F)c(Cl)c3)ncnc2cc1OCc1cn(Cc2ccc(Cl)cc2)nn1
3. C#CCOc1cc2ncnc(Nc3ccc(F)c(Cl)c3)c2cc1NC(=O)C=C
4. C=CC(=O)Nc1cc2c(Nc3ccc(F)c(Cl)c3)ncnc2cc1OCc1cn(Cc2ccc(C)cc2)nn1
5. CN(C)C/C=C/C(=O)Nc1cc2c(Nc3ccc(F)c(Cl)c3)ncnc2cc1O[C@H]1CCOC1 [AFATINIB]

[2.06, 2.42, 2.03, 2.33, 0.08]

Batch lookup, log10(IC50) per entry.
1. C=CC(=O)Nc1cc2c(Nc3ccc(F)c(Cl)c3)ncnc2cc1OCc1cn(Cc2ccc(F)cc2)nn1
2. C=CC(=O)Nc1cc2c(Nc3ccc(F)c(Cl)c3)ncnc2cc1OCc1cn(CCCN2CCOCC2)nn1

[2.16, 1.28]

###

Below are compounds with their pIC50 as measured on Receptor tyrosine-protein kinase erbB-2 (Homo sapiens, UniProt P04626).
Sequence (P04626 whole entry): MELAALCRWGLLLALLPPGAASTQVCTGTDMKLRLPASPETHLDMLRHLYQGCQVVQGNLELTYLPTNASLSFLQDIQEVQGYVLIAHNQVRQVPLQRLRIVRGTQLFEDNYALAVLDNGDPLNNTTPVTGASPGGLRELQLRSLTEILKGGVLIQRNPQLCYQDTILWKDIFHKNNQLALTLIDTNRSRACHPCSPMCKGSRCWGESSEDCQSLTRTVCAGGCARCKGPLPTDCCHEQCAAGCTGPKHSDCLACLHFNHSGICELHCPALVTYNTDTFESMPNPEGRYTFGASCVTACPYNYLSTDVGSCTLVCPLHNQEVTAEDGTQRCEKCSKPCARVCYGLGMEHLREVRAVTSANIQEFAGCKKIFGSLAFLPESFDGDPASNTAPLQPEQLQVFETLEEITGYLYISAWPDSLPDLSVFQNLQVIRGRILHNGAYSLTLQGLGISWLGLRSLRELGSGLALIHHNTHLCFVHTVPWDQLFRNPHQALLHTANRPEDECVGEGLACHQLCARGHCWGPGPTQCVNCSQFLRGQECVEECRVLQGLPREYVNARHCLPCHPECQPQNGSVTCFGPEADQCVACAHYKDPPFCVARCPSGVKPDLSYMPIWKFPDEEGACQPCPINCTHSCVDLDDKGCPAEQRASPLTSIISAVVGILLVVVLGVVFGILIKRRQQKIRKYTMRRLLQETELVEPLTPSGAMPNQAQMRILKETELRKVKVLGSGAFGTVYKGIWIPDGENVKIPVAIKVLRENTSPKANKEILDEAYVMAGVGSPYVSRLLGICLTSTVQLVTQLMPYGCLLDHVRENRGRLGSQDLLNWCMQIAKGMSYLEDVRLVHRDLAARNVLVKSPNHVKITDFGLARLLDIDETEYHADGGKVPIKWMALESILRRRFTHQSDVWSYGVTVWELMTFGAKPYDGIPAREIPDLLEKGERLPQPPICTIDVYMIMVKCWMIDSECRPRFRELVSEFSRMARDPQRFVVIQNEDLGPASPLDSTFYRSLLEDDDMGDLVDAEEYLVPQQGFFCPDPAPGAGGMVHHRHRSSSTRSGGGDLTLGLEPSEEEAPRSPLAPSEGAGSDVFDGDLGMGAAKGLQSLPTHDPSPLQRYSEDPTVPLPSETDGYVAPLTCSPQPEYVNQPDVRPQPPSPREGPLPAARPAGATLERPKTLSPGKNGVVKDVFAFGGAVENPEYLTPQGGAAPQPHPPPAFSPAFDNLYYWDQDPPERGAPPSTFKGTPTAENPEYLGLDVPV
Numbers only, as −log10 of the molar value.

C=CC(=O)Nc1cc2c(Nc3ccc(F)c(Cl)c3)ncnc2cc1OCc1cn(Cc2ccc(Cl)cc2)nn1	6.65
C=CC(=O)Nc1cc2c(Nc3ccc(F)c(Cl)c3)ncnc2cc1OCc1cn(CCCN2CCOCC2)nn1	7.27

Batch lookup, pIC50 per entry.
1. C=CC(=O)Nc1cc2c(Nc3ccc(F)c(Cl)c3)ncnc2cc1OCc1cn(CCCO)nn1
2. C=CC(=O)Nc1cc2c(Nc3ccc(F)c(Cl)c3)ncnc2cc1OCc1cn(Cc2ccccc2)nn1
3. C=CC(=O)Nc1cc2c(Nc3ccc(F)c(Cl)c3)ncnc2cc1OCc1cn(Cc2ccccc2F)nn1
4. C=CC(=O)Nc1cc2c(Nc3ccc(F)c(Cl)c3)ncnc2cc1OCc1cn(Cc2cccc(F)c2)nn1
5. C=CC(=O)Nc1cc2c(Nc3ccc(F)c(Cl)c3)ncnc2cc1OCc1cn(-c2ccccc2)nn1
6. C=CC(=O)Nc1cc2c(Nc3ccc(F)c(Cl)c3)ncnc2cc1OCc1cn(Cc2ccc(OC)cc2)nn1
7. C=CC(=O)Nc1cc2c(Nc3ccc(F)c(Cl)c3)ncnc2cc1OCc1cn(Cc2ccc(C)cc2)nn1

7.17
7.05
7.11
6.68
6.33
6.67
6.80

Batch lookup, pIC50 per entry.
1. C=CC(=O)Nc1cc2c(Nc3ccc(F)c(Cl)c3)ncnc2cc1OCc1cn(CCc2ccccc2)nn1
2. C=CC(=O)Nc1cc2c(Nc3ccc(F)c(Cl)c3)ncnc2cc1OCc1cn(Cc2ccc(F)cc2)nn1

1. 6.35
2. 6.67

###

# Test system: NCI-H1975
# test: Antiproliferative activity against human NCI-H1975 cells harboring EGFR T790M/L858R double mutant after 72 hrs by EZ-Cytox assay
# Format: functional, cell-based
# assay_conditions: NCI-H1975, 72 h
Criterion: IC50 strictly under 1000 nM. Met: 1 (yes). Not met: 0 (no).

Study these solved cases before continuing.
C=CC(=O)Nc1cc2c(Nc3ccc(F)c(Cl)c3)ncnc2cc1OCc1cn(Cc2cccc(F)c2)nn1	1 (yes)
C=CC(=O)Nc1cc2c(Nc3ccc(F)c(Cl)c3)ncnc2cc1OCc1cn(Cc2ccc(OC)cc2)nn1	1 (yes)
C=CC(=O)Nc1cc2c(Nc3ccc(F)c(Cl)c3)ncnc2cc1OCc1cn(Cc2ccc(F)cc2)nn1	1 (yes)
C=CC(=O)Nc1cc2c(Nc3ccc(F)c(Cl)c3)ncnc2cc1OCc1cn(CCCO)nn1	0 (no)

Given `C#CCOc1cc2ncnc(Nc3ccc(F)c(Cl)c3)c2cc1NC(=O)C=C` , is recorded IC50 strictly lower than 1000 nM?
0 (no)

###

# assayed_target: hERG (KCNH2) (Homo sapiens, UniProt Q12809)
# Sequence (Q12809 whole entry): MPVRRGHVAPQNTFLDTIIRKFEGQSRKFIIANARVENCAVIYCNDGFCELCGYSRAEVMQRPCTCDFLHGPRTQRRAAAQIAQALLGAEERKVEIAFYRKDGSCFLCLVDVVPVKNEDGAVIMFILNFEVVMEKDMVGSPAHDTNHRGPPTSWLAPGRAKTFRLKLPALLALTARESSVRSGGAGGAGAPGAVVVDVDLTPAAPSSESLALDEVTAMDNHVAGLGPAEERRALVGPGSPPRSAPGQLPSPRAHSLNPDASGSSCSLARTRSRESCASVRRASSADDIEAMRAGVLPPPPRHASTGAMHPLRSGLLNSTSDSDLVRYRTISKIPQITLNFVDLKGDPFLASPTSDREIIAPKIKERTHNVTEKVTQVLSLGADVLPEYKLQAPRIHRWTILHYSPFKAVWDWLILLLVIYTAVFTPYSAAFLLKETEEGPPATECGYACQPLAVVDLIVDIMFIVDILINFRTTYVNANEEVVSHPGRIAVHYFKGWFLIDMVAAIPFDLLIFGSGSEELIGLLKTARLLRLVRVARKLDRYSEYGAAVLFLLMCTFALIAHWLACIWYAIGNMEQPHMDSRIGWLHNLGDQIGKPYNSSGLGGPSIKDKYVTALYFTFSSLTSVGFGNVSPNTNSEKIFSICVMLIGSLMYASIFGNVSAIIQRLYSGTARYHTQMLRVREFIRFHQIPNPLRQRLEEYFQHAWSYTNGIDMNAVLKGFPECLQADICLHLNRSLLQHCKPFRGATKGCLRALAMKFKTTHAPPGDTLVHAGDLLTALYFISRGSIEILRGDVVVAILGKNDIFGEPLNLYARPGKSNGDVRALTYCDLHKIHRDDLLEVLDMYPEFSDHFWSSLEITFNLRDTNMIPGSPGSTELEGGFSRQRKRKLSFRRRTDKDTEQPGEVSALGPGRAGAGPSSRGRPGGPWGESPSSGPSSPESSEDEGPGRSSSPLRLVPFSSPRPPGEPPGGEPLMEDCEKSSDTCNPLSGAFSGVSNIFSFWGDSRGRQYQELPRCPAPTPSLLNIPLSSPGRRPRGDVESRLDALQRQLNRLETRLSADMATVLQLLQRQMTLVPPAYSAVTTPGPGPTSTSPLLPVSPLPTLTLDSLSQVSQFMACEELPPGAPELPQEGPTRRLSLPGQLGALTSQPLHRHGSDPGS
# test: Inhibition of human ERG expressed in HEK cell at 10 uM at -70 mV holding potential by patch clamp method relative to control
# assay_conditions: HEK cells that express hERG
readout_name: inhibition at 10 µM (%)
Give bare numbers, in %.

Answered examples (2):
C=CC(=O)Nc1cc2c(Nc3ccc(F)c(Cl)c3)ncnc2cc1OCc1cn(Cc2cccc(F)c2)nn1	20.7
C=CC(=O)Nc1cc2c(Nc3ccc(F)c(Cl)c3)ncnc2cc1OCc1cn(Cc2ccc(Cl)cc2)nn1	33.6

Consider the molecule `C=CC(=O)Nc1cc2c(Nc3ccc(F)c(Cl)c3)ncnc2cc1OCc1cn(Cc2ccc(F)cc2)nn1` and give its measured inhibition at 10 µM.
46.2

###

Kindly supply the reported activity at 0.25 h, 10 µM values for the records listed here.
# assayed_target: CYP2C9 (Homo sapiens, UniProt P11712)
# Sequence (P11712 whole entry): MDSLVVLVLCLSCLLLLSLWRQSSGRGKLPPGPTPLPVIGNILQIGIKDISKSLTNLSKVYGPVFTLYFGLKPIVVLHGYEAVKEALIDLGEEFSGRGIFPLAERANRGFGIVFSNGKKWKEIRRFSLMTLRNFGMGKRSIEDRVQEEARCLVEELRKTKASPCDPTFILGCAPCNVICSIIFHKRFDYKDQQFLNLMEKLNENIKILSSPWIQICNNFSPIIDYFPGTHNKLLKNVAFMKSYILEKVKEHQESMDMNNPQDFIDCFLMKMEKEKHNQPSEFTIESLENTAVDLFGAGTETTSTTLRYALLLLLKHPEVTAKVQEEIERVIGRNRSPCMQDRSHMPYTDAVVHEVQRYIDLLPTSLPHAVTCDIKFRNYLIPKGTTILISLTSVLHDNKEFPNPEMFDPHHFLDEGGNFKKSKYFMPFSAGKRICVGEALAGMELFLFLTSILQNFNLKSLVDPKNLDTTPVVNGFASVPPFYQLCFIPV
# test: Inhibition of CYP2C9 in human liver microsomes assessed as residual activity at 10 uM using tolbutamide as substrate preincubated for 5 mins followed by NADPH addition and measured after 15 mins by LC-MS/MS analysis relative to control
# Type: ADME
# assay_conditions: probe tolbutamide, read-out: Activity
Numbers only, in %.

C=CC(=O)Nc1cc2c(Nc3ccc(F)c(Cl)c3)ncnc2cc1OCc1cn(Cc2cccc(F)c2)nn1	11.8
C=CC(=O)Nc1cc2c(Nc3ccc(F)c(Cl)c3)ncnc2cc1OCc1cn(Cc2ccc(Cl)cc2)nn1	16.3

Batch lookup, activity at 0.25 h, 10 µM per entry.
1. CC(=O)N1CCN(c2ccc(OCC3COC(Cn4ccnc4)(c4ccc(Cl)cc4Cl)O3)cc2)CC1 (centres undefined)
2. C=CC(=O)Nc1cc2c(Nc3ccc(F)c(Cl)c3)ncnc2cc1OCc1cn(Cc2ccc(F)cc2)nn1

85
13.5

###

# Tested on: HepG2
# test: Cytotoxicity against human HepG2 cells after 24 hrs by LDH release assay
# Format: cell-based
# assay_conditions: HepG2, 24 h
Kindly supply the reported pIC50 values for the records listed here.
One number for each entry, as −log10 of the molar value.

Answered examples (3):
C=CC(=O)Nc1cc2c(Nc3ccc(F)c(Cl)c3)ncnc2cc1OCc1cn(Cc2ccc(Cl)cc2)nn1	4.22
C=CC(=O)Nc1cc2c(Nc3ccc(F)c(Cl)c3)ncnc2cc1OCc1cn(Cc2ccc(F)cc2)nn1	4.57
C=CC(=O)Nc1cc2c(Nc3ccc(F)c(Cl)c3)ncnc2cc1OCc1cn(Cc2cccc(F)c2)nn1	4.54

Consider the compound `COC(=O)C1=C(C)NC(C)=C(C(=O)OC)C1c1ccccc1[N+](=O)[O-]` and give its measured pIC50.
5.03

###

# Test system: NCI-H1975
# test: Antiproliferative activity against human NCI-H1975 cells harboring EGFR T790M/L858R double mutant after 72 hrs by EZ-Cytox assay
# Assay type: functional, cell-based
# assay_conditions: NCI-H1975, 72 h
readout_name: IC50 (nM)
Give bare numbers, in nM.

C=CC(=O)Nc1cc2c(Nc3ccc(F)c(Cl)c3)ncnc2cc1OCc1cn(Cc2ccccc2F)nn1	619
C=CC(=O)Nc1cc2c(Nc3ccc(F)c(Cl)c3)ncnc2cc1OCc1cn(Cc2ccccc2)nn1	808
C=CC(=O)Nc1cc2c(Nc3ccc(F)c(Cl)c3)ncnc2cc1OCc1cn(Cc2ccc(Cl)cc2)nn1	304
C=CC(=O)Nc1cc2c(Nc3ccc(F)c(Cl)c3)ncnc2cc1OCc1cn(Cc2ccc(C)cc2)nn1	417
C=CC(=O)Nc1cc2c(Nc3ccc(F)c(Cl)c3)ncnc2cc1OCc1cn(CCc2ccccc2)nn1	2090

Batch lookup, IC50 per entry.
1. C=CC(=O)Nc1cc2c(Nc3ccc(F)c(Cl)c3)ncnc2cc1OCc1cn(CCCN2CCOCC2)nn1
2. C=CC(=O)Nc1cc2c(Nc3ccc(F)c(Cl)c3)ncnc2cc1OCc1cn(-c2ccccc2)nn1

[341, 4780]

Consider the compound CN(C)C/C=C/C(=O)Nc1cc2c(Nc3ccc(F)c(Cl)c3)ncnc2cc1O[C@H]1CCOC1 [AFATINIB] and give its measured IC50.
131
